# System: M14 melanoma
# test.details: NCI-60 one-dose screen, 48 h
# test.parameters: 10 µM unless noted
Compounds without any hit were thinned out: in the full panel of roughly 83,000, 20% have a hit. Activity calls are given as the source filed them. The calls were made as follows: active = growth percent below 10; inactive = the rest.
Please state which outcome applies, choosing from class 1 for active, class 0 for inactive

Use these answered entries as a reference point.
>>> group("CCN(CC)CCOc1ccc(Cl)c(C)c1")
"class 0"
>>> group("C=C1C(=O)O[C@H]2[C@H]1CC/C(COC(=O)NCc1ccccc1OC)=C\\CC[C@@]1(C)O[C@@H]21")
"class 0"
>>> group("Cc1ccc(C(=O)C2=Cc3cc4ccccc4n3Cc3cnnn32)cc1")
"class 0"
>>> group("CC(C)c1ccc2occ(C=C3C(=O)NC(=O)NC3=O)c(=O)c2c1")
"class 0"
>>> group("CN1CCN(CCCOc2ccc3nc(Nc4ccc(Cl)c(C(F)(F)F)c4)ccc3c2)CC1")
"class 1"
>>> group("C=CCn1c2ccccc2c2c3c(c4c5ccccc5n(CC=C)c4c21)C(=O)N(O)C3=O")
"class 0"
>>> group("COc1ccc(/C=C\\c2cc(OC)c(OC)c(OC)c2)cc1OC(=O)c1cccc(Cn2cc(CCOC(=O)c3cccc(Cn4nnc5c4C(=O)c4ccccc4C5=O)c3)nn2)c1")
"class 1"
>>> group("COc1ccc(Nc2nc(N)nc3c2CCN(Cc2ccc(OC)cc2OC)C3=O)cc1")
"class 0"
>>> group("C=C[C@@H]1C[C@H](O)Cc2ccccc2N1")
"class 0"
>>> group("CCCCC(CC)OC(=O)C(Br)CC (stereo unspecified)")
"class 0"

// outcome(item) with item = CNC(=S)NNC(=O)C1CC1 class 0
